# key: entry, value: protein stability index
B1: CHCHD6 (parent)
chain: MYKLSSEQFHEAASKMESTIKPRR

Variants of: B1
Test: protein stability index of a GFP-peptide fusion (GPS, HEK-293T) (PSI 1-6); higher = more stable;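 note: lentivirally expressed fusions sorted by FACS into six bins by GFP to DsRed ratio, PSI derived from sequencing read proportions per bin multiplied by bin number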
Conditions: c terminus: a fixed tail appended
Lab note: record just the number, no unit beside it.

Guide cases for protein stability index, answers given:
Any idea what its protein stability index is? The variant is `K15M`
3.84

Any idea what its protein stability index is? The variant is `K15C`
3.54

Any idea what its protein stability index is? The variant is `M1E`
4.44

Continuing:
Any idea what its protein stability index is? The variant is `Q8I`
2.84

Any idea what its protein stability index is? The variant is `L4Q`
4.32
